Data provenance is PubChem BioAssay (Tox21).

- Assay remarks: qHTS assay to identify small molecule agonists of the sonic hedgehog signaling (Shh) pathway - cell viability counter screen (AID 1259366); further: nearly all actives have a fitted effect of over 50% in size
- Run parameters: NIH/3T3 Gli1-Luc viability, CellTiter-Fluor, 24 h; series mostly up to 92.4 µM
Records with an inconclusive call do not appear. Activity calls are given as the source filed them. The call rests on the fitted dose curve; in most records, active means well fitted cell-killing curve with a large enough effect in the repeat runs; inconclusive means weak or mixed curves, or effect the other way; inactive means flat fitted curve, though single readings scatter.
Outcomes: active, inactive

{"Compound": "CCO[Si](C)(CCCOCC1CO1)OCC (stereo not given)", "Class assignment": "inactive"}
{"Compound": "O=C(c1ccccc1)c1ccc(O)cc1", "Class assignment": "inactive"}
{"Compound": "O=C(O)CCC(=O)OC[C@@H](NC(=O)C(Cl)Cl)[C@H](O)c1ccc([N+](=O)[O-])cc1", "Class assignment": "inactive"}
{"Compound": "CCOc1ncc(F)c(=O)[nH]1", "Class assignment": "inactive"}
{"Compound": "BrC(Br)C(Br)Br", "Class assignment": "inactive"}
{"Compound": "CC(C)CC(O)CC(C)C", "Class assignment": "inactive"}
{"Compound": "CC(=O)C(C)=O", "Class assignment": "inactive"}
{"Compound": "CCCCCCCCCCCC(=O)OCC(O)CO (stereo not given)", "Class assignment": "inactive"}
{"Compound": "Cc1ccc2nc(N)[nH]c(=O)c2c1Sc1ccncc1", "Class assignment": "inactive"}
{"Compound": "Cc1ccc(NC(=O)N(C)C)cc1NC(=O)N(C)C", "Class assignment": "inactive"}
{"Compound": "CC(O)Cn1cnc2c1c(=O)n(C)c(=O)n2C (stereo not given)", "Class assignment": "inactive"}
{"Compound": "O=C(O)c1ccc(O)cc1O", "Class assignment": "inactive"}
{"Compound": "CC(=O)OC(C)C[N+](C)(C)C (stereo not given)", "Class assignment": "inactive"}
{"Compound": "Cc1ccc(N(CCO)CCO)cc1", "Class assignment": "inactive"}
{"Compound": "O=C(O)CO", "Class assignment": "inactive"}
{"Compound": "COc1cc(C(C)=O)ccc1OCCCN1CCC(c2noc3cc(F)ccc23)CC1", "Class assignment": "inactive"}
{"Compound": "O=C(O)/C=C/c1ccc(O)c(O)c1", "Class assignment": "inactive"}
{"Compound": "CO[C@@H]1[C@@H](OC)[C@H](C)[C@@](O)(CC(=O)O)O[C@H]1[C@H](C)[C@H]1O[C@@]2(CC[C@@](C)([C@H]3CC[C@@](C)([C@@H]4O[C@@H]([C@H]5O[C@](C)(O)[C@H](C)C[C@@H]5C)C[C@@H]4OC4C[C@H](OC)[C@@H](OC)[C@H](C)O4)O3)O2)C[C@H](O)[C@H]1C (stereo not given in full)", "Class assignment": "active"}
{"Compound": "CC(=O)OCC(C)C", "Class assignment": "inactive"}
{"Compound": "CC(C)N=C=NC(C)C", "Class assignment": "inactive"}
{"Compound": "CC1=C2[C@@H]([C@H](C)CC[C@H]2/C=C(\\C)C(=O)O)[C@H](O)C1", "Class assignment": "inactive"}
{"Compound": "CC(C)Cc1ccc(CC(=O)O)cc1", "Class assignment": "inactive"}
{"Compound": "COc1cc(NS(=O)(=O)c2ccc(N)cc2)nc(C)n1", "Class assignment": "inactive"}
{"Compound": "Nc1ccc(S(=O)(=O)NCc2ccccc2)cc1", "Class assignment": "inactive"}
{"Compound": "CNCc1ccc(NC(=O)c2c[nH]c3c2C(=O)CCC3)cc1", "Class assignment": "inactive"}
{"Compound": "CCCC(=O)OC(=O)CCC", "Class assignment": "inactive"}
{"Compound": "CCC(CO)(CO)CO", "Class assignment": "inactive"}
{"Compound": "O=C(O)c1cccc(Oc2ccccc2)c1", "Class assignment": "inactive"}
{"Compound": "O=c1[nH][nH]c(=O)c2cc([N+](=O)[O-])ccc12", "Class assignment": "inactive"}
{"Compound": "COC(=O)CC(C(C)=O)C(=O)OC (stereo not given)", "Class assignment": "inactive"}
{"Compound": "CCCOC(=O)c1c(Cl)c(Cl)c(Cl)c(Cl)c1C(=O)OCCC", "Class assignment": "inactive"}
{"Compound": "CCN(Cc1cccc(S(=O)(=O)O)c1)c1ccc(C(=C2C=CC(=[N+](CC)Cc3cccc(S(=O)(=O)O)c3)C=C2)c2ccccc2S(=O)(=O)[O-])cc1", "Class assignment": "active"}
{"Compound": "CC(C)COC(=O)c1ccc(O)cc1", "Class assignment": "inactive"}
{"Compound": "Cc1c[nH]c2ccccc12", "Class assignment": "inactive"}
{"Compound": "COC(CC(C)CCCC(C)(C)O)OC (stereo not given)", "Class assignment": "inactive"}
{"Compound": "Oc1cccc2[nH]ccc12", "Class assignment": "inactive"}
{"Compound": "O=C(CCS)OCC(COC(=O)CCS)(COC(=O)CCS)COC(=O)CCS", "Class assignment": "inactive"}
{"Compound": "CCC1CCC(CCC(=O)O)C1 (stereo not given)", "Class assignment": "inactive"}
{"Compound": "C=CCOC(=O)COCCC(C)C", "Class assignment": "inactive"}
{"Compound": "CN1C(CSCC(F)(F)F)Nc2cc(Cl)c(S(N)(=O)=O)cc2S1(=O)=O (stereo not given)", "Class assignment": "inactive"}
{"Compound": "CCCCCCCCCCCCCOS(=O)(=O)O", "Class assignment": "inactive"}
{"Compound": "CC(C)COC(=O)COc1cc(Cl)c(Cl)cc1Cl", "Class assignment": "inactive"}
{"Compound": "Cc1oc(=O)oc1COC(=O)[C@@H]1N2C(=O)[C@@H](NC(=O)[C@H](N)c3ccccc3)[C@H]2SC1(C)C", "Class assignment": "inactive"}
{"Compound": "Cc1ccc2c(c1[N+](=O)[O-])C(=O)c1ccccc1C2=O", "Class assignment": "inactive"}
{"Compound": "CC[C@H]1OC(=O)[C@H](C)[C@@H](O[C@H]2C[C@@](C)(OC)[C@@H](O)[C@H](C)O2)[C@H](C)[C@@H](O[C@@H]2O[C@H](C)C[C@H](N(C)C)[C@H]2O)[C@](C)(O)C[C@@H](C)/C(=N\\OCOCCOC)[C@H](C)[C@@H](O)[C@]1(C)O", "Class assignment": "active"}
{"Compound": "CCCCCCC(CO)CCCC (stereo not given)", "Class assignment": "inactive"}
{"Compound": "Nc1nc(-c2ccc([N+](=O)[O-])cc2)cs1", "Class assignment": "inactive"}
{"Compound": "FC(F)(F)C(F)(F)C(F)(F)C(F)(F)CCI", "Class assignment": "inactive"}
{"Compound": "CC(=O)NNC(C)=O", "Class assignment": "inactive"}
{"Compound": "COc1cc(S(=O)(=O)Nc2ccccc2)c(OC)cc1N", "Class assignment": "inactive"}

---

- Assay remarks: qHTS assay for small molecule activators of the heat shock response signaling pathway - cell viability counter screen (AID 743209); further: nearly all actives have a fitted effect of over 50% in size
- Run parameters: HSE-bla HeLa viability, CellTiter-Glo luminescence, 5 h; series mostly up to 62.6 µM
Inconclusive results are not listed. Activity calls are given as the source filed them. Calls come from the whole dose curve; as a rule, active = well fitted cell-killing curve with a large enough effect in the repeat runs; inconclusive = weak or mixed curves, or effect the other way; inactive = no such curve, though single readings can be large or run the other way.
Outcome codes: true (1) (active), false (0) (inactive)

{"Compound": "O=c1[nH]c2cc(C(F)(F)F)c(N3CCOCC3)cc2n(CP(=O)(O)O)c1=O", "Class assignment": "false (0)"}
{"Compound": "COc1cc(OC)c2ccc(=O)oc2c1", "Class assignment": "false (0)"}
{"Compound": "N[C@@H](Cc1cc(I)c(O)c(I)c1)C(=O)O", "Class assignment": "false (0)"}
{"Compound": "CCCCC[C@H](O)/C=C/[C@H]1[C@H](O)CC(=O)[C@@H]1C/C=C\\CCCC(=O)O", "Class assignment": "false (0)"}
{"Compound": "C=C(C)C(=O)OCCC(F)(F)C(F)(F)C(F)(F)C(F)(F)C(F)(F)C(F)(F)F", "Class assignment": "false (0)"}
{"Compound": "CC1CCC(C(C)CS)CC1S (configuration not stated)", "Class assignment": "true (1)"}
{"Compound": "O=C(O)c1cccc(Oc2ccccc2)c1", "Class assignment": "false (0)"}
{"Compound": "CCCCCCC(CO)CCCC (configuration not stated)", "Class assignment": "false (0)"}
{"Compound": "Cc1cn([C@H]2C[C@H](F)[C@@H](CO)O2)c(=O)[nH]c1=O", "Class assignment": "false (0)"}
{"Compound": "c1ccc(CNc2ncnc3c2ncn3C2CCCCO2)cc1 (configuration not stated)", "Class assignment": "false (0)"}
{"Compound": "C=CCOC(=O)COCCC(C)C", "Class assignment": "false (0)"}
{"Compound": "CCN(CC)c1cccc(O)c1", "Class assignment": "false (0)"}

---

- Assay remarks: qHTS assay to identify small molecule antagonists of the glucocorticoid receptor (GR) signaling pathway - cell viability counter screen (AID 720693); further: nearly all actives have a fitted effect of over 55% in size
- Run parameters: GR-bla HeLa viability, CellTiter-Glo luminescence, 18 h, with 5 nM dexamethasone present; series mostly up to 58.5 µM
Inconclusive results are not listed. The source made the active and inactive calls. Calls come from the whole dose curve; as a rule, active = well fitted cell-killing curve with a large enough effect in the repeat runs; inconclusive = weak or mixed curves, or effect the other way; inactive = no such curve, though single readings can be large or run the other way.

{"Compound": "CCCCC(CC)COS(=O)(=O)O (stereo unspecified)", "outcome": "inactive"}
{"Compound": "Cc1ccc(Cl)cc1N", "outcome": "inactive"}
{"Compound": "CCC(C)(C)C(=O)O", "outcome": "inactive"}
{"Compound": "CN(C)CC/C=C1\\c2ccccc2Sc2ccc(Cl)cc21", "outcome": "inactive"}
{"Compound": "CCCCCCOC(=O)CCCCC", "outcome": "inactive"}
{"Compound": "CCOC(=O)c1ccc(NC(=O)CN2CCCCC2)cc1", "outcome": "inactive"}
{"Compound": "CCN(CC)c1cccc(O)c1", "outcome": "inactive"}
{"Compound": "CCCCC[C@H](O)/C=C/[C@H]1[C@H](O)CC(=O)[C@@H]1C/C=C\\CCCC(=O)O", "outcome": "inactive"}
{"Compound": "CNc1c2c(nn1C)CCCC2", "outcome": "inactive"}
{"Compound": "CCNc1nc(N)nc(Cl)n1", "outcome": "inactive"}
{"Compound": "CC(=O)NCCO", "outcome": "inactive"}
{"Compound": "CS(=O)(=O)c1ccc([C@@H](C[C@H]2CCC(=O)C2)C(=O)Nc2cnccn2)cc1Cl", "outcome": "inactive"}
{"Compound": "Cc1ccc(N(CC2=NCCN2)c2cccc(O)c2)cc1", "outcome": "inactive"}
{"Compound": "COc1cc(C(C)=O)ccc1OCCCN1CCC(c2noc3cc(F)ccc23)CC1", "outcome": "inactive"}
{"Compound": "CCCc1nc2c(C)cc(-c3nc4ccccc4n3C)cc2n1Cc1ccc(-c2ccccc2C(=O)O)cc1", "outcome": "inactive"}
{"Compound": "NC(=O)CCCCC(N)=O", "outcome": "inactive"}
{"Compound": "OCC(CO)n1cnc(-c2ccc(F)cc2)c1-c1ccnc(Oc2ccccc2)n1", "outcome": "inactive"}
{"Compound": "CCOCCC(=O)OCC", "outcome": "inactive"}
{"Compound": "Nc1ccc(NC(=O)c2ccc(N)cc2)cc1", "outcome": "inactive"}
{"Compound": "CC(C)(C(=O)c1cccnc1)c1cccnc1", "outcome": "inactive"}
{"Compound": "Cc1cc([N+](=O)[O-])ccc1N", "outcome": "inactive"}
{"Compound": "CC(C)C1CCC(C(=O)N[C@H](Cc2ccccc2)C(=O)O)CC1 (stereo partly specified)", "outcome": "inactive"}
{"Compound": "Nc1ccc(N=Nc2ccc(N)cc2)cc1", "outcome": "inactive"}
{"Compound": "O=[N+]([O-])C1(Br)COCOC1", "outcome": "inactive"}
{"Compound": "C=Cc1ccc(OC(C)=O)cc1", "outcome": "inactive"}
{"Compound": "CC[C@H]1OC(=O)[C@H](C)[C@@H](O[C@H]2C[C@@](C)(OC)[C@@H](O)[C@H](C)O2)[C@H](C)[C@@H](O[C@@H]2O[C@H](C)C[C@H](N(C)C)[C@H]2O)[C@](C)(O)C[C@@H](C)/C(=N\\OCOCCOC)[C@H](C)[C@@H](O)[C@]1(C)O", "outcome": "inactive"}
